- System: HCT-116 colon
- Test: NCI tumour cell line growth inhibition, 48 h
A collection of molecules and their measured TGI

- Molecule: "O=C(O)CCC(c1ccccc1)(c1ccccc1)c1ccccc1"
  Assayed system: "HCT-116 colon"
  TGI: "> 100 µM"

**Query** Fill in reported TGI for this entry: CC(C)(C)[Si](C)(C)OCC1OC(n2cnc3c(=O)[nH]cnc32)CC1O (stereo not given)
**Result** > 100 µM

**Query** Assign TGI to the following record: COc1ccc(-c2sc(Br)c3c2C(=O)C2OC(=O)NC32)cc1OC (stereo not given)
**Result** > 100 µM

**Query** Give TGI for the following molecule: CC1(c2ccccc2)O[C@@H]2C[C@H]3[C@@H]4CCC5=CC(=O)C=C[C@]5(C)[C@@]4(F)[C@@H](O)C[C@]3(C)[C@]2(C(=O)CO)O1 (stereo not given in full)
**Result** 27.8 µM

**Query** Provide only the value of recorded TGI for Cc1ccccc1NC(=O)Cc1nc2ccccc2s1
**Result** 31 µM

**Query** Please report the measured TGI for C[C@]12CC[C@H](O[C@@H]3O[C@H](CO[C@@H]4O[C@H](CO)[C@@H](O)[C@H](O)[C@H]4O)[C@@H](O)[C@H](O)[C@H]3O)C[C@@H]1CC[C@@H]1[C@@H]2CC[C@]2(C)[C@@H](C3=CC(=O)OC3)CC[C@]12O
**Result** 34.9 µM

**Query** Name the recorded TGI of the molecule listed here: Cn1ncc(C#N)c1-c1ccc2c(c1)CN([C@H](CN)Cc1cccc(F)c1)C2=O
**Result** 28.7 µM

**Query** Give TGI for O=c1[nH]c(=O)c2c([nH]1)[nH]c1ccc(Br)cc12
**Result** > 100 µM

**Query** Input Cc1ccc(S(=O)(=O)OCOS(=O)(=O)c2ccc(C)cc2)cc1 , output reported TGI.
**Result** > 100 µM

**Query** Tell us which TGI value is on record for CC(=O)OCC1(C)C(O)CCC2(C)C1CCC1CC3CC12CCC3(O)CO (stereo not given)
**Result** > 100 µM

**Query** Look up and state reported TGI for c1ccc(-c2[nH]ncc2-c2ccnc(-c3ccc(OCCN4CCOCC4)cc3)c2)nc1
**Result** > 25 µM

**Query** Entry C/C(=N\NC(=O)c1ccncc1)c1sc(-n2nc(-c3ccccc3)cc2-c2ccccc2)nc1C needs its TGI filled in; supply it.
**Result** > 31.6 µM

====

- Test system: RXF 393 renal
- Test: NCI tumour cell line growth inhibition, 48 h
Property name: GI50

Check out these entries, answers already filled in.
- Smiles str: "COc1cccc2c1C(=O)c1c(O)c3c(c(O)c1C2=O)C[C@@](O)(/C(CO)=N/NC(=O)CCCCCN1C(=O)C=CC1=O)C[C@@H]3O[C@H]1C[C@H](N)[C@H](O)[C@H](C)O1"
  Assayed system: "RXF 393 renal"
  Result: "0.984 µM"
- Smiles str: "O=C(Nc1ccncc1)C(=O)c1cn(S(=O)(=O)c2cccc(Cl)c2)c2ccccc12"
  Assayed system: "RXF 393 renal"
  Result: "4.34 µM"
- Smiles str: "COc1ccc2c(c1)C(=Nc1ccc(F)c(Cl)c1)c1c-2c(Nc2ccc(F)c(Cl)c2)nc2ccccc12"
  Assayed system: "RXF 393 renal"
  Result: "0.579 µM"

**Query** Dear colleague, please send me the reported GI50 for O=S(=O)(NC1=NCCN1C(=S)SN1CCn2c1nsc2=S)c1ccc(Oc2ccccc2)cc1 when you can.
**Result** 32.4 µM

====

- Test system: PC-3 prostate
- Test: NCI tumour cell line growth inhibition, 48 h
# Lookup of reported TGI keyed by entry

- Molecule: "C=C1c2nc3ccccc3n2C=C(c2cccc(Cl)c2)N1Cc1ccc(OC)cc1"
  Assayed system: "PC-3 prostate"
  Result: "> 70.3 µM"
- Molecule: "CSc1c(C#N)c(=O)n(N)c2c1c(C)nn2-c1ccccc1"
  Assayed system: "PC-3 prostate"
  Result: "76.7 µM"
- Molecule: "CC(=O)NS(=O)(=O)c1ccc(NCc2cccc3c(=O)c4ccc(Cl)cc4oc23)cc1"
  Assayed system: "PC-3 prostate"
  Result: "> 86.2 µM"

**Query** Could you please provide reported TGI for Cc1ccc(N2C(=O)C3c4[nH]c5ccc(C)cc5c4C4CCC(C(C)(C)C)CC4C3C2=O)cc1 (centres undefined) ? Thanks!
**Result** 70.3 µM

**Query** Please report the measured TGI for O=S(=O)(NC1=NCCN1C(=S)SN1CCn2c1nsc2=S)c1ccc(Oc2ccccc2)cc1
**Result** > 100 µM

**Query** Supply reported TGI belonging to this molecule: CCN(CC)CCNC(=O)c1cccc2c1-c1ccccc1C2=O
**Result** > 100 µM

**Query** State its TGI: CCO/C(O)=C(/C(=N)N1CCOCC1)C(=O)NC(C)C
**Result** > 100 µM

**Query** Annotate the molecule COc1ccc(Cn2cc(COc3cc(/C=C/C(=O)c4cc(OC)c(OC)c(OC)c4)ccc3OC)nn2)cc1 with its measured TGI.
**Result** > 100 µM

**Query** Give me measured TGI, please, for this molecule: CC12OC(CC(O)C1O)n1c3ccccc3c3c4c(c5c6ccccc6n2c5c31)C(=O)N(CCN1CCOCC1)C4=O (centres undefined)
**Result** 7.3 µM

====

List of TGI values.
- Test system: XF 498 CNS
- Test: NCI tumour cell line growth inhibition, 48 h

- Molecule: "Cc1ccccc1NC(=O)Cc1nc2ccccc2s1"
  Property name: "TGI"
  Result: "27.6 µM"

**Query** Assign TGI to the following record: CCC12C=CCN(CCc3c([nH]c4ccccc34)/C=C\1)C2 (stereo not given)
**Result** > 100 µM

**Query** Provide one value: measured TGI of Nc1nc(SCC(=O)c2ccccc2)c2[nH]cnc2n1
**Result** > 100 µM

====

- Test system: SN12C renal
- Test: NCI tumour cell line growth inhibition, 48 h; in the data active = GI50 below about 0.43 µM; inactive = the rest
// one of 1 (active), -1 (inactive), no free text

Example entries and their recorded answers appear below.
- Compound: "CN1CCN(CCCNC(=O)c2c3c(n4ccccc24)C(=O)c2ncccc2C3=O)CC1"
  Assayed system: "SN12C renal"
  Class name: -1
- Compound: "Cc1nc2sc(C(=O)Nc3cccc(Br)c3C)c(N)c2cc1C(O)c1ccccc1 (stereo not given)"
  Assayed system: "SN12C renal"
  Class name: 1
- Compound: "COc1cc(C(=O)/C=C/c2cc(-c3ccc4c(c3)OCO4)n[nH]2)cc(OC)c1OC"
  Assayed system: "SN12C renal"
  Class name: -1
- Compound: "O=C1C=C(NCCO)c2nccc3c2c1nc1ccccc13"
  Assayed system: "SN12C renal"
  Class name: -1

Shifting focus to the compound that follows.
**Query** Which outcome was entered for the compound COc1ccc(OC)c(Nc2nc3nonc3nc2Nc2cccc(Br)c2)c1 in this test?
**Result** 1

====

The compounds listed here are annotated with their TGI.
- System: MCF7 breast
- Test: NCI tumour cell line growth inhibition, 48 h
// units = µM; emit number, no label

Below, each entry is followed by its recorded TGI result.
- Compound: "Cc1c(C(=O)c2ccccc2)[n+](=O)c2cc(Cl)c(Cl)cc2n1[O-]"
  TGI (µM): 26.6
- Compound: "C=CCn1c2ccccc2c2c3c(c4c5ccccc5n(CC=C)c4c21)C(=O)N(O)C3=O"
  TGI (µM): 29.9
- Compound: "CCN(CC)C1Oc2cc3c(cc2C(c2cc(OC)c(O)c(OC)c2)C1C)OCO3 (centres undefined)"
  TGI (µM): 27.3

Attention now shifts to the item below.
**Query** Output measured TGI for this item: CN1CCN(CCCNC(=O)c2c3c(n4ccccc24)C(=O)c2ncccc2C3=O)CC1
**Result** 2.62

====

Recorded TGI by entry
- Test system: HOP-62 NSCLC
- Test: NCI tumour cell line growth inhibition, 48 h

Check out these entries, answers already filled in.
- Molecule: "Cc1cccc(NC(=O)C(=O)C(C2OC(=O)c3ccccc32)[N+](=O)[O-])c1C (centres undefined)"
  Result: "31.1 µM"
- Molecule: "Nc1[nH]nc2nc(-c3cc(Cl)ccc3Cl)cc(-c3ccc(F)cc3)c12"
  Result: "47.8 µM"
- Molecule: "CN1CCN(CCCNC(=O)c2c3c(n4ccccc24)C(=O)c2ncccc2C3=O)CC1"
  Result: "13.5 µM"
- Molecule: "C=C1CN=C(Nc2ccc(Cl)cc2)S1"
  Result: "> 100 µM"
- Molecule: "C=C1CC(OC)(C(OC)C(=O)N[C@H]2OCO[C@H]3C2O[C@H](C[C@@H](COC)OC)C(C)(C)C3OC)O[C@H](C)[C@@H]1C (some centres undefined)"
  Result: "8.46 µM"

**Query** Consider the molecule O=C(Nc1nc(-c2ccc(Cl)cc2)cs1)c1cc(O)c(O)c(O)c1 and give its recorded TGI.
**Result** 1880 µM

**Query** Name the recorded TGI of the item COc1ccc(-c2sc(Br)c3c2C(=O)C2OC(=O)NC32)cc1OC (centres undefined) in your answer.
**Result** > 100 µM

**Query** Return the recorded TGI value; entry: Brc1ccccc2cc(-c3ccccc3)nc1-2
**Result** 42.9 µM

**Query** Specify measured TGI for COC(=O)[C@]12CC[C@@H](C)[C@H](C)[C@@H]1C1=CC[C@@H]3[C@@]4(C)C(C=O)=C[C@@](C)(CO)[C@@H]4[C@H](O)C[C@@]3(C)[C@]1(C)CC2 .
**Result** 29.6 µM

**Query** Give TGI for CN1CCC2(c3ccccc3)CC(=O)/C(=C/c3ccc(Cl)c(Cl)c3)C1C2 (centres undefined)
**Result** 12.3 µM
